Test system: HeLa cells
Assay: Compound screen by flow cytometry: HeLa cell count as surrogate readout of cell viability (z-scoreHeLa); note: test concentration or dose not given here
Format: cell-based, human
Conditions: PKIS compound screen, HeLa cell count, replicate 3
Reported metric: z-scoreHeLa rep 3
I only need the number, thanks.

The recorded z-scoreHeLa rep 3 for entry O=C(Nc1ccccc1F)NC1CCN(c2ccnc(Nc3ccc(F)cc3)n2)C1 (centres unmarked) [GSK1379722A] equals 0.47

The recorded z-scoreHeLa rep 3 for entry COc1cc(Nc2nccc(N3CCC(NC(=O)C(C)c4ccc(Cl)cc4)C3)n2)cc(OC)c1OC (centres unmarked) [GSK1379757A] equals 0.74

The recorded z-scoreHeLa rep 3 for entry COc1ccc(Nc2nccc(N3CCC(NC(=O)Nc4cccc(OC)c4)C3)n2)cc1 (centres unmarked) [GSK1379742A] equals -0.18

The recorded z-scoreHeLa rep 3 for entry Cc1cc(O)cc(C)c1/C=C/c1cncc(C(N)=O)c1 [GW435821X] equals -1.36

The recorded z-scoreHeLa rep 3 for entry CC(C)c1nc(-c2cccc(NS(=O)(=O)c3ccccc3)c2)c(-c2ccnc(Nc3ccc4c(c3)CN(C)CC4)n2)s1 [GSK1649598A] equals 0.20

The recorded z-scoreHeLa rep 3 for entry COc1ccc(S(=O)(=O)NC2CCN(c3cc(C)nc(Nc4cccc(C#N)c4)n3)CC2)cc1 [GSK1653539A] equals -0.40

The recorded z-scoreHeLa rep 3 for entry Cc1cc(-c2ccc3c(c2)CC[C@@H](N[C@@H](C)c2ccccc2)C3)cnc1N [GW412617A] equals 1.14

The recorded z-scoreHeLa rep 3 for entry O=C1Nc2ccc(C(=O)c3ccco3)cc2C1=Cc1cc(Cl)c(O)c(Cl)c1 [GW406108X] equals 1.82

###

Test system: HeLa cells
Experiment: Compound screen by flow cytometry: HeLa cell count as surrogate readout of cell viability (z-scoreHeLa); note: test concentration or dose not given here
Assay type: cell-based, human
Settings: compound screen, HeLa cell count, mean of 3 replicates
Would you mind telling me the reported z-scoreHeLa mean of each entry?
I only need the number, thanks.

Form field z-scoreHeLa mean for item CS(=O)(=O)CCNCc1nc(-c2ccc3ncnc(Nc4ccc(OCc5ccccc5)c(Cl)c4)c3c2)cs1 [GW582764A] on HeLa cells: -0.48

Form field z-scoreHeLa mean for item CS(=O)(=O)CCN(CC#N)Cc1ccc(-c2ccc3ncnc(Nc4ccc(OCc5cccc(F)c5)c(Cl)c4)c3c2)o1 [GW616030X] on HeLa cells: -0.84

Form field z-scoreHeLa mean for item CN1CCN(Cc2ccc(NC(=O)Nc3ccc(N(C)c4ccnc(Nc5ccc(CS(C)(=O)=O)cc5)n4)cc3)cc2)CC1 [GW827654A] on HeLa cells: 0.67

Form field z-scoreHeLa mean for item CCn1cc(-c2ccnc3[nH]ccc23)c(-c2cccc(NC(=O)Nc3ccc(OCc4ccccc4)cc3)c2)n1 [GSK718429A] on HeLa cells: -1.48

Form field z-scoreHeLa mean for item Nc1nccc2scc(-c3ccc4c(c3)CCN4C(=O)Cc3ccccc3)c12 [GSK2576924A] on HeLa cells: -1.02

Form field z-scoreHeLa mean for item Cn1cc(-c2ccc3c(c2)CCN3C(=O)Cc2cc(F)cc(C(F)(F)F)c2)c2c(N)ncnc21 [GSK2635225A] on HeLa cells: -0.02

Form field z-scoreHeLa mean for item Nc1ncnc2occ(-c3ccc(NC(=O)Nc4cc(C(F)(F)F)ccc4F)cc3)c12 [GW770249X] on HeLa cells: -1.83

###

Test system: HeLa cells
Experiment: Compound screen by flow cytometry: HeLa cell count as surrogate readout of cell viability (z-scoreHeLa); note: test concentration or dose not given here
Assay type: cell-based, human
Conditions: PKIS compound screen, replicate 2
z-scoreHeLa rep 2 vs 0.6: at or above is MET, below is NOT MET.

Item c1ccc(-c2cc3ccncc3cc2OC2CCNCC2)cc1 [GSK1122999D] with z-scoreHeLa rep 2 of 0.6 or above?
NOT MET

Item Cn1cncc1-c1cc2c(Nc3ccc(OCc4ccccc4)cc3)ncnc2cn1 [GW281179X] with z-scoreHeLa rep 2 of 0.6 or above?
NOT MET

Item Cn1cc(C=C2C(=O)Nc3cccnc32)c2ccccc21 [GW441756X] with z-scoreHeLa rep 2 of 0.6 or above?
NOT MET

Item Cn1cc(-c2ccc3c(c2)CCN3C(=O)Cc2ccccc2Cl)c2c(N)ncnc21 [GSK2608885A] with z-scoreHeLa rep 2 of 0.6 or above?
NOT MET

Item c1ccc(-c2ccc3c(Nc4ccc5[nH]ccc5c4)ccnc3c2)nc1 [GW440138A] with z-scoreHeLa rep 2 of 0.6 or above?
MET

Item CNC(=O)c1cc(-c2ccc(F)cc2)cc(-c2ccc(S(=O)(=O)N3CCCC3)cc2)c1N [GSK635416A] with z-scoreHeLa rep 2 of 0.6 or above?
NOT MET

Item O=C(Nc1n[nH]c2cc(-c3ccccc3)ccc12)C1CC1 [SB-732941] with z-scoreHeLa rep 2 of 0.6 or above?
NOT MET

Item Cc1nnc(-c2ccc(C)c(-c3ccc(C(=O)NCc4ccc(Cl)cc4)cc3)c2)o1 [GW708893X] with z-scoreHeLa rep 2 of 0.6 or above?
MET

Item CCn1c(-c2nonc2N)nc2c(C#CC(C)(C)O)nc(OCCNC)cc21 [GSK949675A] with z-scoreHeLa rep 2 of 0.6 or above?
MET

Item COc1cc(N2CCN(C(C)C)CC2)ccc1Nc1nc(Nc2ccc(F)cc2C(N)=O)c2cc[nH]c2n1 [GSK1220512A] with z-scoreHeLa rep 2 of 0.6 or above?
NOT MET

Item COc1ccc(Nc2nccc(N3CCC(NC(=O)Nc4cccc(OC)c4)C3)n2)cc1 (stereo not shown) [GSK1379742A] with z-scoreHeLa rep 2 of 0.6 or above?
MET

Item COc1cc(Nc2nccc(N3CCC(NC(=O)Nc4ccc5c(c4)OCO5)C3)n2)cc(OC)c1OC (stereo not shown) [GSK1379766A] with z-scoreHeLa rep 2 of 0.6 or above?
NOT MET

Item O=C(NC1CCN(c2ccnc(Nc3ccc(F)cc3)n2)C1)c1cc2ccccc2s1 (stereo not shown) [GSK1379716A] with z-scoreHeLa rep 2 of 0.6 or above?
NOT MET

Item c1ccc(Cc2nc3ccc(Nc4ncnc5ccccc45)cc3[nH]2)cc1 [GR269666A] with z-scoreHeLa rep 2 of 0.6 or above?
NOT MET

Item CCCNC(=O)Nc1ccc(N(C)c2ccnc(NC3CC3)n2)cc1 [GW818933X] with z-scoreHeLa rep 2 of 0.6 or above?
MET

Item CCCN(CCS(C)(=O)=O)Cc1ccc(-c2ccc3ncnc(Nc4ccc(OCc5cccc(F)c5)c(Cl)c4)c3c2)o1 [GW621823A] with z-scoreHeLa rep 2 of 0.6 or above?
NOT MET

Item CC(C)c1nc(-c2cccc(NS(=O)(=O)c3ccccc3)c2)c(-c2ccnc(Nc3ccc4c(c3)CN(C)CC4)n2)s1 [GSK1649598A] with z-scoreHeLa rep 2 of 0.6 or above?
NOT MET

Item Cc1ccc(NC(=O)Nc2ccccc2)cc1-c1ccc(C(=O)Nc2ccncc2)cc1 [GSK1398471A] with z-scoreHeLa rep 2 of 0.6 or above?
NOT MET

Item N#Cc1ccc(CCNc2nccc(-c3cccc(CN4CCNCC4)c3)n2)cc1 [GSK2137462A] with z-scoreHeLa rep 2 of 0.6 or above?
NOT MET

Item O=C(Nc1ccccc1F)NC1CCN(c2ccnc(Nc3ccc(F)cc3)n2)CC1 [GSK1379800A] with z-scoreHeLa rep 2 of 0.6 or above?
NOT MET

Item O=C(c1ccc(-c2cc(-c3c[nH]nc3-c3ccccn3)ccn2)cc1)N1CCOCC1 [GW812171X] with z-scoreHeLa rep 2 of 0.6 or above?
MET

Item COc1ccc(Nc2nccc(N3CCC(NC(=O)C(C)c4ccc(Cl)cc4)CC3)n2)cc1 (stereo not shown) [GSK1379812A] with z-scoreHeLa rep 2 of 0.6 or above?
MET

Item CC(C)c1nc(-c2cccc(NS(=O)(=O)c3c(F)cccc3F)c2F)c(-c2ccnc(Nc3ccc(N4CCOCC4)nc3)n2)s1 [GSK2008607A] with z-scoreHeLa rep 2 of 0.6 or above?
NOT MET

Item Fc1cc(Cl)ccc1Nc1ccnc2cc(-c3ccc(CN4CCOCC4)o3)ccc12 [GW560109X] with z-scoreHeLa rep 2 of 0.6 or above?
NOT MET

Item Cc1cccc(Cn2ccn3c(=O)cc(N4CCOCC4)nc23)c1 [GSK2297542A] with z-scoreHeLa rep 2 of 0.6 or above?
NOT MET

Item CN(C)c1cc2c(Nc3ccc4nc(Cc5ccccc5)[nH]c4c3)ncnc2cn1 [GW301888X] with z-scoreHeLa rep 2 of 0.6 or above?
MET

Item Cc1nc(-c2ccccc2)n2nc(NCCCN3CCOCC3)ncc12 [GW874091X] with z-scoreHeLa rep 2 of 0.6 or above?
NOT MET

Item CN(C)c1cc2c(Nc3ccc4c(cnn4Cc4ccccc4)c3)ncnc2cn1 [GW282974X] with z-scoreHeLa rep 2 of 0.6 or above?
MET

Item Cc1ccc(NC(=O)c2ccnc(N3CCN(C)CC3)c2)cc1-c1ccc(C(=O)NCC2CC2)cc1 [GW775604X] with z-scoreHeLa rep 2 of 0.6 or above?
MET

Item COc1cccc(C2=C(Nc3ccc(Cl)c(C(=O)O)c3)C(=O)NC2=O)c1 [SB-390769] with z-scoreHeLa rep 2 of 0.6 or above?
MET

Item Nc1ncc(-c2cccnc2)c2scc(-c3ccc4c(c3)CCN4C(=O)Cc3ccccc3)c12 [GSK683281A] with z-scoreHeLa rep 2 of 0.6 or above?
NOT MET

Item [O-][S+]1CCN(Cc2ccc(-c3ccc4ncnc(Nc5ccc(OCc6ccccc6)c(F)c5)c4c3)o2)CC1 [GW576924A] with z-scoreHeLa rep 2 of 0.6 or above?
NOT MET
